I'd be grateful if you could share measured MIC for these entries.
System: Staphylococcus aureus subsp. aureus (ATCC29213)
measurement.notes: MIC, broth microdilution (CLSI), Staphylococcus aureus ATCC29213
Type: cell-based
settings: Staphylococcus aureus, ATCC29213, Table XIII; read-out: S. aureus ATCC 29213 MIC
Where a name gives a salt, the structure may show the parent alone.
Report as a plain number; the unit mg/L is understood.

[in] Would you mind telling me what MIC value was observed for Cc1cccc(C(CCNCCCN)c2cn(CC3CCCCC3)c3ccc([N+](=O)[O-])cc23)c1 (stereo not shown) [Compound 424, hydrochloride salt] ?
[out] 2

[in] // lookup MIC for Cl.Cl.NCCCNCCC(c1ccncc1)c1cn(C2CC3CCC2C3)c2ccccc12 (stereo not shown) [Compound 338]
[out] 64

[in] # get_value(readout='MIC', item= CCN(Cc1cn(CC2CCCCC2)c2ccccc12)CC1CCN(C)CC1 [Compound 303] )
[out] 128

[in] Could you share which MIC value was measured for Cl.Cl.N[C@H]1CC[C@H](NCCC(c2cn(C3CCCCC3)c3ccccc23)C2CCCCC2)CC1 (stereo partly shown) [Compound 378] ?
[out] 4

[in] Could you share which MIC value was measured for Cc1cccc(C(CCNCC2(CN)CC2)c2cn(C3CCCCC3)c3ccccc23)c1 (stereo not shown) [Compound 390] ?
[out] 8

[in] Look up MIC for this compound: Cl.Cl.NCCCNCCC(c1ccccc1)c1cn(C2CCCCC2)c2ccccc12 (stereo not shown) [Compound 343]
[out] 8

[in] For Cc1cccc(C(CCNC2CCNCC2)c2cn(CC3CCCCC3)c3ccccc23)c1.Cl (stereo not shown) [Compound 122] , what is its reported MIC?
[out] 8

[in] Which MIC reading was recorded for the compound Cl.Cl.NCCCNCCC(c1cccnc1)c1cn(CC2CCCCC2)c2ccccc12 (stereo not shown) [Compound 321] ?
[out] 32

[in] Which MIC is reported for this compound? Cl.N[C@H]1CC[C@H](NC(=O)CC(c2cncc3ccccc23)c2cn(CC3CCCCC3)c3ccccc23)CC1 (stereo partly shown) [Compound 191]
[out] 8

[in] // MIC lookup, key: Cl.Cl.NCCCNCCC(c1cccnc1)c1cn(C2CC3CCC2C3)c2ccccc12 (stereo not shown) [Compound 328]
[out] 32

[in] GET /values?readout=MIC&item= Cc1cccc(-c2ccc3c(c2)c(CCCNCC(O)CN)cn3C2CCCCC2)c1 (stereo not shown) [Compound 385]
[out] 4

[in] Data request, read-out MIC, for Cc1cccc(C(CCNCCCN)c2cn(C3CCCCC3)c3cc(Br)ccc23)c1.Cl.Cl (stereo not shown) [Compound 357]
[out] 4

[in] Would you kindly share the measured MIC for Cc1cccc(C(CCNCCCN)c2cn(C3CCCCC3)c3ccc(C#N)cc23)c1.Cl.Cl (stereo not shown) [Compound 379] ?
[out] 8

[in] Reported MIC for CC(=O)N1CCC(N(CCC(c2cccc(C)c2)c2cn(C3CCCCC3)c3ccccc23)C(C)=O)CC1 (stereo not shown) [Compound 354] : what is it?
[out] 128

[in] Given the entry Cl.Cl.NC1CCC(NCCC(c2cccnc2)c2cn(C3CCCCC3)c3ccccc23)CC1 (stereo not shown) [Compound 330] , report its measured MIC.
[out] 64

[in] Returns the measured MIC for the input compound. Input: Cc1cccc(C(CCOCCCN(C)C)c2cn(C3CCCCC3)c3ccccc23)c1 (stereo not shown) [Compound 364]
[out] 8
